Biological target: AuroraA-TPX2 (Homo sapiens, UniProt O14965)
Sequence (O14965 133-383 limits assumed): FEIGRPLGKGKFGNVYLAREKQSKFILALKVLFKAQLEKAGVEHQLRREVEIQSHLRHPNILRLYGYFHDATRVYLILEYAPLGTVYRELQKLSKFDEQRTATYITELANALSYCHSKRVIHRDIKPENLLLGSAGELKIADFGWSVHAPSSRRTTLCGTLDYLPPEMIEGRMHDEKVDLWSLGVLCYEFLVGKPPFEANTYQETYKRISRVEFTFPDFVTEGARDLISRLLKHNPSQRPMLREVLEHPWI
Sequence (Q9ULW0 whole entry partner): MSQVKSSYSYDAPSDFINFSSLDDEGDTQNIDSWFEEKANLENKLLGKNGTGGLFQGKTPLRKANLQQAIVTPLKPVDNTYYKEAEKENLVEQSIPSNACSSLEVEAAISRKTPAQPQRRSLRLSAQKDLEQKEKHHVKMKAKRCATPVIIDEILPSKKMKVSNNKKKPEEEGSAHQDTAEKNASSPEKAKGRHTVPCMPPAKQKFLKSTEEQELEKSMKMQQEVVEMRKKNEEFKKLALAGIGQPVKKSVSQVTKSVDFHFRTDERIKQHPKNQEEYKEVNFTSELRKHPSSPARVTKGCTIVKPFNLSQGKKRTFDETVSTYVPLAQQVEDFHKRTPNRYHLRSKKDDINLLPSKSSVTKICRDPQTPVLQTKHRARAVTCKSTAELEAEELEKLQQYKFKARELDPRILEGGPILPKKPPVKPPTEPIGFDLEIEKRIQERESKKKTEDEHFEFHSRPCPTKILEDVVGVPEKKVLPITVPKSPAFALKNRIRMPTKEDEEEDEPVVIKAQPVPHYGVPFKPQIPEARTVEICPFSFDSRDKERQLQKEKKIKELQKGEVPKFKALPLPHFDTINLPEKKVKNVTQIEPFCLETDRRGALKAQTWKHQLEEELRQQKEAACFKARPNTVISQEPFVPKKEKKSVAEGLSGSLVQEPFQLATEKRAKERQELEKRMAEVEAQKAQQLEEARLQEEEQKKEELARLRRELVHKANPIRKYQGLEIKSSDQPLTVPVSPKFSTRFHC
Would you kindly list IC50 for each of these molecules?

Task item: Item COCCOc1cc2nccc(Sc3ccc(Nc4nnc(-c5ccc(Cl)cc5)c5ccccc45)cc3)n2n1 : provide IC50
Reply: < 100 nM

Task item: Fill in reported IC50 for this entry: Clc1ccc(-c2nnc(Nc3ccc(Oc4ncnn5cccc45)cc3)c3ccccc23)cc1
Reply: 500 to 2500 nM

Task item: # return recorded IC50 for input Clc1ccn2ncnc(Sc3ccc(Nc4nnc(-c5ccccc5)c5ccccc45)cc3)c12
Reply: > 2500 nM

Task item: Answer with the recorded IC50 of Oc1cc2nccc(Sc3ccc(Nc4nnc(-c5ccc(Cl)cc5)c5ccccc45)cc3)n2n1 only.
Reply: < 100 nM

Task item: Give IC50 for the following molecule: Clc1ccc(-c2nnc(Nc3ccc(Sc4ccnc5cc(C6CC6)nn45)cc3)c3ccccc23)cc1
Reply: > 2500 nM
